Hello, the source for this data is patent US6673804B1, in case you need it.

- subject-of-test: MMP-13 (Homo sapiens, UniProt P45452)
- method-description: MMP-13 inhibition test (in vitro)
- condition-label: recombinant active MMP-13, fluorescent substrate 20 μM, 1 hour at 37° C.
pIC50: −log10 of the molar value.
A collection of compounds and their measured pIC50
quantity-measured: pIC50

{"columns": ["compound", "quantity-measured", "number"],
 "data": [
  ["CN([C@H](CCn1c(=O)[nH]c2ccccc2c1=O)C(=O)NO)S(=O)(=O)c1ccc(Oc2cccc(Cl)c2)cc1", "pIC50", 9.37],
  ["CN(C(CCn1c(=O)[nH]c2ccsc2c1=O)C(=O)NO)S(=O)(=O)c1ccc(Oc2ccccc2)cc1 (racemic)", "pIC50", 9.33],
  ["CN([C@H](CCn1c(=O)[nH]c2ccsc2c1=O)C(=O)NO)S(=O)(=O)c1ccc(Oc2cccc(Cl)c2)cc1", "pIC50", 9.49]
]}
